biological target: CKδ (Homo sapiens)
Sequence (P48730 whole entry): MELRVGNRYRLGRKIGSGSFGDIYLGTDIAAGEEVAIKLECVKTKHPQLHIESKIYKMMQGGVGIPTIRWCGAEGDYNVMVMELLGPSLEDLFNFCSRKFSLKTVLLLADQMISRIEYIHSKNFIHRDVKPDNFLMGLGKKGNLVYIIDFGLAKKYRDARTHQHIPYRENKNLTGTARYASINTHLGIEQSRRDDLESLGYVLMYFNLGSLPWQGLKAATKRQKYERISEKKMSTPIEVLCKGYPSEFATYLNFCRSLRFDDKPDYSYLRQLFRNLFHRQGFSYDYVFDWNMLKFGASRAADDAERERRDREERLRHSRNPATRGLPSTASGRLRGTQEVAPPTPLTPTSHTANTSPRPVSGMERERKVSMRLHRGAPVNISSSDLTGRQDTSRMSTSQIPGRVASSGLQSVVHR
metric: IC50

Please indicate recorded IC50 of CC(C)C[C@@H]1NC(=O)c2c1c1c3ccccc3n(CCCCN)c1c1[nH]c3ccccc3c21 measured with CKδ (Homo sapiens).
> 5 µM

----------
biological target: UniProtKB P07949; assay: in vitro IC50 against PP-sensitive WT kinases; assay type: biochemical; conditions: read-out: IC50 Ret; mean ± SEM
Sequence (P07949 29-1114): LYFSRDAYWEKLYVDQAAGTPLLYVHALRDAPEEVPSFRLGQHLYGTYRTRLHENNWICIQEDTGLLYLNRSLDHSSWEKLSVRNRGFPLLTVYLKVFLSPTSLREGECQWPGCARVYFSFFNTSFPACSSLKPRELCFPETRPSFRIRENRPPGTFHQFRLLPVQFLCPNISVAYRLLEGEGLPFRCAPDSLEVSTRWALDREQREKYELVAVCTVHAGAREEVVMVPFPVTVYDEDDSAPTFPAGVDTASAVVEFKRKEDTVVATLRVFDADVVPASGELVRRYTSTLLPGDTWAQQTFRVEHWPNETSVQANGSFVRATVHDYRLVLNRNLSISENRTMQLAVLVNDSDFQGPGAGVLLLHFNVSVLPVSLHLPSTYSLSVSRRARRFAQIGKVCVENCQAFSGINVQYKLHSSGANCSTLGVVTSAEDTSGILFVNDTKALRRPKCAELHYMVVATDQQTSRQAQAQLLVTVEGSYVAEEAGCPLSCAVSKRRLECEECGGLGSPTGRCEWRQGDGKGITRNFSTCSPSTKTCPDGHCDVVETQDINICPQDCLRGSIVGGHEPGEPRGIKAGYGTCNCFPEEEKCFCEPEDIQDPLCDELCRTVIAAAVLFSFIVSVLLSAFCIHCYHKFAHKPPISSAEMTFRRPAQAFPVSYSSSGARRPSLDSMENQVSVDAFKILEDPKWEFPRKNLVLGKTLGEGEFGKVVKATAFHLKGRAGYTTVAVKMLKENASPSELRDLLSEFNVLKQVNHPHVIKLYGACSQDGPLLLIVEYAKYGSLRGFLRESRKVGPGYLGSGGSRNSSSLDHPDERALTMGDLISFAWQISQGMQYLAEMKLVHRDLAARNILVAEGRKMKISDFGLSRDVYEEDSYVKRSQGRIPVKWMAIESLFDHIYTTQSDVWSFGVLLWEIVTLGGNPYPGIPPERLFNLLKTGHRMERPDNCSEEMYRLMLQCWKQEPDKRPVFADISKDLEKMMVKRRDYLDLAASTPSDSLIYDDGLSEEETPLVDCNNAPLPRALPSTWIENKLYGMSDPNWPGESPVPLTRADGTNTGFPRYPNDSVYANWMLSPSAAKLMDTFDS
metric: IC50

Provide measured IC50 value, entry: CC(C)C[C@@H]1NC(=O)c2c1c1c3ccccc3n(CCCCN)c1c1[nH]c3ccccc3c21 [Star 12]
> 5 µM

----------
Biological target: Pkd1 (Homo sapiens, UniProt Q15139)
Sequence (Q15139 1-912): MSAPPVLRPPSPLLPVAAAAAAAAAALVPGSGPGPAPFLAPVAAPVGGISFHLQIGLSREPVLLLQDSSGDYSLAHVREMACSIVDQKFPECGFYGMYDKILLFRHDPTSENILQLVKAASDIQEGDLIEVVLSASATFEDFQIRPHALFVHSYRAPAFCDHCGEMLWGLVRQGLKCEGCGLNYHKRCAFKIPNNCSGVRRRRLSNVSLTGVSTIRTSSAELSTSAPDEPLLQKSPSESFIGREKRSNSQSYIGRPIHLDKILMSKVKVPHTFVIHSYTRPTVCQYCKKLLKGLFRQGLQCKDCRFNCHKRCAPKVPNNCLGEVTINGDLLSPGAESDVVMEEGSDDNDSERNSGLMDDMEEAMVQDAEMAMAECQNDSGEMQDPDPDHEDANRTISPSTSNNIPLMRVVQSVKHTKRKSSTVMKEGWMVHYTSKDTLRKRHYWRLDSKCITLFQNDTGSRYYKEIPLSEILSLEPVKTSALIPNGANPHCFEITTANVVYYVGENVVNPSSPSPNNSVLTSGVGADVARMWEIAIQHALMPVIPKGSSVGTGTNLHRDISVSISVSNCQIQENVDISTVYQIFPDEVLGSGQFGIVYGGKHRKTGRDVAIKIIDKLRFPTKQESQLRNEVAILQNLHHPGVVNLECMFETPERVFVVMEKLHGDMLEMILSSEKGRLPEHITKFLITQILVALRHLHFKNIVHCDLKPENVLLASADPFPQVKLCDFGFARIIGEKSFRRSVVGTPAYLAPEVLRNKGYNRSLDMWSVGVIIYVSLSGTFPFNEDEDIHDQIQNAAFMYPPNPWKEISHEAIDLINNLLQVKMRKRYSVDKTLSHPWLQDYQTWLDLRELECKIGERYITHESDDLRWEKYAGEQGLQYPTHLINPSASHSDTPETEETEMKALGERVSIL
metric: pIC50
Please note pIC50 is a logarithmic value: minus log10 of concentration in mol/L. Answer with that number alone.

Please report the measured pIC50 for CC(C)C[C@@H]1NC(=O)c2c1c1c3ccccc3n(CCCCN)c1c1[nH]c3ccccc3c21
5.48

----------
biological target: UniProt P00523
pIC50: −log10 of the molar value.
metric: pIC50

Would you please give the reported pIC50 of CC(C)C[C@@H]1NC(=O)c2c1c1c3ccccc3n(CCCCN)c1c1[nH]c3ccccc3c21 with UniProt P00523?
< 5.30

----------
Target sequence: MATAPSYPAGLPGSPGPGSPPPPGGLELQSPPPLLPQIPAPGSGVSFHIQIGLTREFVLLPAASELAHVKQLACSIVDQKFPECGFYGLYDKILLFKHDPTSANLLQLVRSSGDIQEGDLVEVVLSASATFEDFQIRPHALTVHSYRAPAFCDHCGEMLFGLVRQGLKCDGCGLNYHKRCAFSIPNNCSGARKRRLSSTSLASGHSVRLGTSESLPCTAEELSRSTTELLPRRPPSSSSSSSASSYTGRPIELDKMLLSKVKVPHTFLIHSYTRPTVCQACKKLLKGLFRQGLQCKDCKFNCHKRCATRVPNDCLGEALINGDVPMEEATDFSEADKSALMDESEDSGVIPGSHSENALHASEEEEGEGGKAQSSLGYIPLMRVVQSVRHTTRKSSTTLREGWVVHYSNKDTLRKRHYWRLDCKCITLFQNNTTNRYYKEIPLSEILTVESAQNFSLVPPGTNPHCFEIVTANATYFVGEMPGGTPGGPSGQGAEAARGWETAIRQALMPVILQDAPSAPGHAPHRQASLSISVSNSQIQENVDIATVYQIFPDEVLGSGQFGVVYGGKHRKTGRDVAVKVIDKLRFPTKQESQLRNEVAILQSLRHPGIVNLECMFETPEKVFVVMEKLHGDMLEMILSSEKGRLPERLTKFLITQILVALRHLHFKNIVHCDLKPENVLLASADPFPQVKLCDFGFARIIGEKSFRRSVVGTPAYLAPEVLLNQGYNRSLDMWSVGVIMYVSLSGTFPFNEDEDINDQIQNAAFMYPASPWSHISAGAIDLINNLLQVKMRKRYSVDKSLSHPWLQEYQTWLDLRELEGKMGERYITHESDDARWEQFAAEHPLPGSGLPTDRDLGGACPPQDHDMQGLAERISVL
pIC50: −log10 of the molar value.
metric: pIC50

Using known records, supply pIC50 for CC(C)C[C@@H]1NC(=O)c2c1c1c3ccccc3n(CCCCN)c1c1[nH]c3ccccc3c21
< 5.30
